Data origin: PubChem BioAssay (Tox21)

molecular target: Cytochrome P450 1A2 (Homo sapiens) (UniProt P05177); assay: Cytochrome P450 Family 1 Subfamily A Member 2 (CYP1A2) small molecule antagonists: luciferase reporter qHTS assay (AID 1671199); details: P450-Glo CYP1A2 enzyme, luciferin luminescence, 1 h; series mostly up to 115 µM; also: nearly all actives have a fitted effect of over 50% in size; also: potency is read from the fitted curve at half-maximal effect
Sequence (P05177 whole entry, looked up): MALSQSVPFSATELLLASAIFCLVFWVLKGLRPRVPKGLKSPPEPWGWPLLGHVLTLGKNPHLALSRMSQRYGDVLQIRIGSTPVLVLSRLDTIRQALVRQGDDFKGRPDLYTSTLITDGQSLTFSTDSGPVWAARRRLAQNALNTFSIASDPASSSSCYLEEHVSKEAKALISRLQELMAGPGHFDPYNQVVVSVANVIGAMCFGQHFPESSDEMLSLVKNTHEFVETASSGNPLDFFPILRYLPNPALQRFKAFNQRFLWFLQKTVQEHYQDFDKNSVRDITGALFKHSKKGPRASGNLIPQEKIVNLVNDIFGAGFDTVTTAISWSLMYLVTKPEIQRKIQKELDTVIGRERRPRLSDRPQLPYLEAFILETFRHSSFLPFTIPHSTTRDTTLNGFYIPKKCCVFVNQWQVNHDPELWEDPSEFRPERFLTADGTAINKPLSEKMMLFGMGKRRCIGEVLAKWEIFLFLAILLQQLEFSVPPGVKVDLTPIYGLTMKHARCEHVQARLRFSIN
Inconclusive results are not listed. Active and inactive are the calls of the source. Calls follow the shape of the dose curve; as a rule, active = well fitted inhibition curve with a large enough effect in the repeat runs; inconclusive = weak or mixed curves; inactive = no such curve, though single readings can be large or run the other way.
MEASURED ENDPOINT: Potency

Q) Given C(COCC1CO1)OCC1CO1 (stereo not given) , respond with its Potency.
A) inactive

Q) Name the recorded Potency of the compound listed here: CON(C)C(=O)Nc1ccc(Br)c(Cl)c1
A) 1.78 µM (active)

Q) Answer with the recorded Potency of N=C(N)[Se] only.
A) inactive

Q) Return Potency for the following compound: CCC(=O)OC1(c2ccccc2)CCN(C)CC1
A) inactive

Q) Find the measured Potency of CCOC(=O)c1ncn2c1CN(C)C(=O)c1c(I)cccc1-2 and report it.
A) inactive

Batch request: Potency for each of the following compounds.
1. CCC(C(N)=O)N1CCCC1=O (stereo not given)
2. CC(C)c1ccc(O)cc1
3. CN=CNc1ccc(C)cc1C
4. CCOC1Oc2ccc(OS(C)(=O)=O)cc2C1(C)C (stereo not given)
5. CCC(CC)(CNC(=O)CCCO)c1cccc(OC)c1
6. CCCCS(=O)(=O)Cl
7. Cn1c(CCCC(=O)O)nc2cc(N(CCCl)CCCl)ccc21
8. C1CN2CCC1CC2

A)
1: inactive; 2: 22.4 µM (active); 3: inactive; 4: 35.3 µM (active); 5: inactive; 6: inactive; 7: inactive; 8: inactive

Below are some compounds; for each one, tell me its Potency.
1. CCOC(=O)NC(C)(C)Cc1ccc(Cl)cc1
2. N#CC(Br)(Br)C(N)=O

A)
["6.45 µM (active)", "inactive"]

* * *

biological target: Retinoic acid receptor RXR-alpha (Homo sapiens); experiment: qHTS assay to identify small molecule agonists of the RXR signaling pathway (AID 1159527); details: HEK293T RXRa-UAS-bla, beta-lactamase ratio, 16 h; series mostly up to 76.8 µM; also: nearly all actives have a fitted effect of over 35% in size
Inconclusive results are not listed. Active and inactive are the calls of the source. Calls follow the shape of the full dose curve.
Give your call using only these classes: active, inactive

Q) Which result was noted for this molecule in the test: N#CN=C1SCCN1Cc1ccc(Cl)nc1
A) active

Q) Could you please tell me the result logged for CCOC1Oc2ccc(OS(C)(=O)=O)cc2C1(C)C (stereo unspecified) in this assay?
A) inactive

Q) What is the recorded call for this molecule in the test? BrCc1ccc(Br)cc1
A) inactive

Q) What outcome does the record of this test show for OCC(Cl)CCl (stereo unspecified) ?
A) inactive

New cases:
Q) Which result was noted for this molecule in the test: CCOC(=O)N(C)N=O
A) inactive

Q) What call does the record list for CCCCCCCCBr ?
A) inactive

* * *

molecular target: Nuclear receptor subfamily 1 group I member 2 (Homo sapiens) (UniProt O75469); assay: Human pregnane X receptor (PXR) small molecule agonists, qHTS assay (AID 1346982); settings: PXR-Luc HepG2, CYP3A4 luciferase reporter, 24 h; series mostly up to 92.4 µM; also: nearly all actives have a fitted effect of over 35% in size
Sequence (O75469 whole entry, looked up): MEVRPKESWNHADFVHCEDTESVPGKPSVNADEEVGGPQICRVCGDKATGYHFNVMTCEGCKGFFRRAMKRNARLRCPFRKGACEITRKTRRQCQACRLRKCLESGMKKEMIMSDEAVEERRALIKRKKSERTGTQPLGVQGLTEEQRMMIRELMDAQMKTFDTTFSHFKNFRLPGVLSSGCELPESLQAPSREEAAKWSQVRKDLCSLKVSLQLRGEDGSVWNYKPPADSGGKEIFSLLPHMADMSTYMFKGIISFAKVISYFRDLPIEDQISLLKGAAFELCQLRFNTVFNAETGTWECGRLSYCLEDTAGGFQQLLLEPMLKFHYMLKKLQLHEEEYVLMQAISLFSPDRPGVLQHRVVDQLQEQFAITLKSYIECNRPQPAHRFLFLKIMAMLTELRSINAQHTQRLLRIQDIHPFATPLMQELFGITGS
Results filed as inconclusive are left out. The source made the active and inactive calls. Calls follow the shape of the dose curve; as a rule, active = well fitted activation curve with a large enough effect in the repeat runs; inconclusive = weak or mixed curves; inactive = no such curve, though single readings can be large or run the other way.
Hi! Could you answer with just one of these? True for active, False for inactive

Use these answered entries as a reference point.
Q) Dear colleague, could you share the recorded outcome for O=P(O)(O)c1ccccc1 when you have a moment?
A) False

Q) Outcome? Cc1cccc2sc3nncn3c12
A) True

Q) // outcome(item) with item = O=C(O)CBr
A) False

Q) How did this test come out for CCC1(c2ccccc2)CCC(=O)NC1=O (stereo not given) ?
A) False

Q) I'd appreciate the recorded outcome for CN1C(=O)COc2c(C(=O)NC3CN4CCC3CC4)cc(Cl)cc21 (stereo not given) from this test.
A) False

More entries:
Q) Write down the call the test reported for this compound. Item: COC[C@@H](NC(C)=O)C(=O)NCc1ccccc1
A) False

Q) State the result this test recorded for CCN(CC)C1CCCCC1 .
A) False

Q) Please indicate how the test categorized CCC(=O)c1ccc(Cl)cc1 .
A) False

Q) Check the results log: what was the call for O=C(O)C(Br)(Br)Br ?
A) False

Q) State the result this test recorded for CCN1CCCC1CNC(=O)C(O)(c1ccccc1)c1ccccc1 (stereo not given) .
A) False

* * *

Biological target: Progesterone receptor (Homo sapiens)
Test: qHTS assay to identify small molecule agonists of the progesterone receptor (PR) signaling pathway (AID 1346784); also: nearly all actives have a fitted effect of over 30% in size
Conditions: PR-UAS-bla HEK293T, beta-lactamase FRET ratio, 16 h; series mostly up to 92.4 µM
Description: U.S. Tox21 Program National Center for Advancing Translational Sciences [NCATS] NIH Chemical Genomics Center [NCGC] U.S. Environmental Protection Agency [EPA] National Institutes of Environmental Health Sciences [NIEHS] National Toxicology Program [NTP] U.S. Food and Drug Administration [FDA] […] Endocrine disrupting chemicals (EDCs) and their interactions with steroid hormone receptors like PR causes disruption of normal endocrine function. […]
Records with an inconclusive call do not appear. The source made the active and inactive calls. Calls come from the whole dose curve.
MEASURED ENDPOINT: activation

The following compounds have reported results that may help.
Q) Determine its reported activation: CCOC1Oc2ccc(OS(C)(=O)=O)cc2C1(C)C (stereo not given)
A) inactive

Q) State, in one line, measured activation of c1cncc([C@@H]2CCCCN2)c1
A) inactive

Q) Please report the measured activation for CCOP(=S)(OCC)SCCl
A) inactive

Q) # return recorded activation for input ClCCN1CCCC1
A) inactive

Q) For the compound BrCCc1ccccc1 , give its reported activation.
A) inactive

Q) Identify the reported activation for the following entry. C[C@@H](N)[C@@H](O)c1ccccc1
A) inactive

Required: activation, one value per compound below.
1. Nc1c(Cl)c(F)nc(OCC(=O)O)c1Cl
2. CN(C)CCc1c[nH]c2cccc(OP(=O)(O)O)c12
3. OCC(Cl)CCl (stereo not given)
4. COC(=O)c1ccc(CBr)cc1
5. NNCc1ccccc1
6. O=C(O)C(Cl)Br (stereo not given)
7. Oc1ccc(Cc2ccc(O)cc2)cc1
8. C=C1C[C@@H]2[C@H](CC[C@]3(C)C(=O)CC[C@@H]23)[C@@]2(C)C=CC(=O)C=C12

A)
["inactive", "inactive", "inactive", "inactive", "inactive", "inactive", "inactive", "inactive"]

Q) Read the entry CCN(CC)C1CCCCC1 and write its reported activation.
A) inactive

* * *

assay: qHTS assay to identify small molecule agonists of the retinoic acid receptor (RAR) signaling pathway (AID 1159553); conditions: C3RL4 RARE luciferase reporter, agonist, 6 h; series mostly up to 73.3 µM
Records with an inconclusive call do not appear. Activity calls are given as the source filed them. Calls come from the whole dose curve; as a rule, active = well fitted activation curve with a large enough effect in the repeat runs; inconclusive = weak or mixed curves, or effect the other way; inactive = no such curve, though single readings can be large or run the other way.
Classes to choose from: TRUE (active), FALSE (inactive)

The following molecules have reported results that may help.
Q) Outcome? C[C@@H](N)[C@@H](O)c1ccccc1
A) FALSE

Q) Assay result, entry O=[N+]([O-])c1cccc(CCl)c1 — outcome?
A) FALSE

Q) Which outcome did this test record for the molecule COc1cccc([C@@]2(O)CCCC[C@@H]2CN(C)C)c1 ?
A) FALSE

Q) Entry CCC(C)(C#N)N=NC(C)(C#N)CC (centres undefined) : call = ?
A) FALSE

Q) What did this assay record as the result for CCOC(=O)Nc1cccc(OC(=O)Nc2ccccc2)c1 ?
A) TRUE

***
Q) Dear colleague, could you share the recorded outcome for ClC1=C(Cl)C2(Cl)C(CBr)CC1(Cl)C2(Cl)Cl (centres undefined) when you have a moment?
A) FALSE

Q) Hey, what did the test say about CCC1(c2cccc(O)c2)CCCCN(C)C1 (centres undefined) ?
A) FALSE

Q) Answer briefly: the call reported for CC(C)(C)C(=O)Cl in this assay.
A) FALSE

Q) Hi, do you know how C[C@H](CN1CCOCC1)C(C(=O)N1CCCC1)(c1ccccc1)c1ccccc1 came out in this test?
A) FALSE

Q) // outcome(item) with item = O=C(Cl)OCc1ccccc1
A) FALSE

* * *

biological target: Estrogen receptor (Homo sapiens); test: qHTS assay to identify small molecule agonists of the estrogen receptor alpha (ER-alpha) signaling pathway in the presence of an antagonist (AID 1259383); conditions: VM7Luc4E2 cells, ERE-luciferase, +ICI-182,780, 22 h; series mostly up to 92.4 µM; also: nearly all actives have a fitted effect of over 15% in size
Active and inactive are the calls of the source. The call rests on the fitted dose curve.
Thanks in advance; please answer with one of these: active, inactive

// known answers, use as guide
Q) Write down the call the test reported for this compound. Item: CS(=O)(=O)c1ccc(C(=O)C2C(=O)CCCC2=O)c(Cl)c1COCC(F)(F)F
A) inactive

Q) What outcome does the record of this test show for CCN(CC)C1CCCCC1 ?
A) inactive

***
Q) How was CCCCCCCC(=O)Cl classified in this test?
A) inactive

Q) Write down the call the test reported for this compound. Item: CCC(CC)(CNC(=O)CCCO)c1cccc(OC)c1
A) inactive

Q) # fetch the recorded call for CCN(CCO)CCn1c(Cc2ccccc2)nc2c1c(=O)n(C)c(=O)n2C here
A) inactive

Q) Please share the test call associated with C/C=C/CC#N .
A) inactive

Q) How was CC#Cc1cc(C)nc(Nc2ccccc2)n1 classified in this test?
A) inactive

Q) I'd appreciate the recorded outcome for CCC1(CC)C(=O)C=CNC1=O from this test.
A) inactive

Q) Can you look up the reported call for COC(=O)c1ccc(CBr)cc1 for me?
A) active

Q) Could you please tell me the result logged for C#CCOC(=O)/C=C(C)/C=C/CC(C)CCCC(C)C (centres undefined) in this assay?
A) inactive

Q) Look up the recorded call for CC(C)(C)c1cc(O)ccc1O in this test.
A) inactive

Q) For Cc1cccc2sc3nncn3c12 , what call appears in the results of this test?
A) inactive

Q) What did the test return for COP(=O)(OC)O/C(C)=C/C(=O)N(C)C ?
A) inactive

Q) Short answer needed: outcome of this test for O=C(CCl)NCO ?
A) inactive
